From: patent US20240002497A1

Below: a set of entries, each annotated with reported Bmax.
molecular target: T1, muNav1.7α (murine, UniProt Q62205 1-1984); test: binding FACS, HEK JmpIn
T1 construct: HEK JmpIn cells; also called murine Nav1.7α

BINDER: F010302337 (VHH) VHH: EVQLVESGGGVVQPGGSLRLSCAASHRQFIRDVFTGWYRRAPGKQRELVARIYEGGNTQYADSAKGRFTISRDNAKKTVYLQMNSLRPEDTALYYCLFSGTISTGREYRSGDYWGQGTLVTVSS
Bmax: 74%
--
BINDER: F010302363 (VHH) VHH: EVQLVESGGGVVQPGGSLRLSCAASHRAFIRDVFTGWYRQAPGKQRELVARIYEGGNTQYADSVKGRFTISRDNAKKTVYLQMNSLRPEDTALYYCLFSGTISTGREYRSGDYWGQGTLVTVSS
Bmax: 18%
--
BINDER: F010302339 (VHH) VHH: EVQLVESGGGVVQPGGSLRLSCAASHRAFIRDVFTGWYRRAPGKQRELVARIYEGGNTQYADSAKGRFTISRDNAKKTVYLQMNSLRPEDTALYYCLFSGTISTGREYRSGDYWGQGTLVTVSS
Bmax: 61%
--
BINDER: F010302347 (VHH) VHH: EVQLVESGGGVVQPGGSLRLSCAASHRAFIRDVFTGWYRQAPGKQRELVARIYEGGNTQYADSAKGRFTISRDNAKKTVYLQMNSLRPEDTALYYCLFSGTISTGREYRSGDYWGQGTLVTVSS
Bmax: 48%
